Measured binding signal (PBM E-score (-0.5 to 0.5)) values are reported for all entries that follow.
Target: SpTbr T-box (Strongylocentrotus purpuratus) (UniProt A0A7M7RD59)
Sequence: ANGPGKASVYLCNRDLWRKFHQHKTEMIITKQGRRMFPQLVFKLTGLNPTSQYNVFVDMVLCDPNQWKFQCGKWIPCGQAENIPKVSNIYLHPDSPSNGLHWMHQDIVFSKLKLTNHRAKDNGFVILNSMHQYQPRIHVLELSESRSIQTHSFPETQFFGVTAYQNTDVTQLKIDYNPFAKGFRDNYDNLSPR
# respond with the number and nothing more

The cases that follow already have their binding signal (PBM E-score (-0.5 to 0.5)) on record.
sequence_string="AAGGTGTC (double strand) [8-mer AAGGTGTC]" test_value=0.487
sequence_string="AGGTGTCA (double strand) [8-mer AGGTGTCA]" test_value=0.494
sequence_string="GGTGTGAA (double strand) [8-mer GGTGTGAA]" test_value=0.497
sequence_string="AGGTGTTA (double strand) [8-mer AGGTGTTA]" test_value=0.494
sequence_string="AGGTGCGA (double strand) [8-mer AGGTGCGA]" test_value=0.496

Any idea what binding signal (PBM E-score (-0.5 to 0.5)) was measured for CTCACACC (double strand) [8-mer CTCACACC] ?
0.494

Query AAGTGTGA (double strand) [8-mer AAGTGTGA] next
0.488

Query AGGTGTGA (double strand) [8-mer AGGTGTGA] next
0.498

Query GTGTGAAA (double strand) [8-mer GTGTGAAA] next
0.49

Query AGTGTGAA (double strand) [8-mer AGTGTGAA] next
0.489

Query GTGTGAAC (double strand) [8-mer GTGTGAAC] next
0.493

====

Target: PmTbr T-box (Patiria miniata)
Sequence: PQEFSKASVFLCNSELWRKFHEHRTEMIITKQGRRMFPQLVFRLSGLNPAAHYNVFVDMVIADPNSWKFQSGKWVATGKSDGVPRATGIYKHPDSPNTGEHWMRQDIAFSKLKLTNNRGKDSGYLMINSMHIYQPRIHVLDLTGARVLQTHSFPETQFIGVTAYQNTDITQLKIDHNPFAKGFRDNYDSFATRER
measured.attribute: binding signal (PBM E-score (-0.5 to 0.5))
# respond with the number and nothing more

The cases that follow already have their binding signal (PBM E-score (-0.5 to 0.5)) on record.
sequence_string="CTCACACC (double strand) [8-mer CTCACACC]" test_value=0.491
sequence_string="AGGTGTCA (double strand) [8-mer AGGTGTCA]" test_value=0.495
sequence_string="ACACCTCG (double strand) [8-mer ACACCTCG]" test_value=0.49
sequence_string="AGGTGCGA (double strand) [8-mer AGGTGCGA]" test_value=0.497
sequence_string="AGGTGCTA (double strand) [8-mer AGGTGCTA]" test_value=0.491

Any idea what binding signal (PBM E-score (-0.5 to 0.5)) was measured for GGGTGTGA (double strand) [8-mer GGGTGTGA] ?
0.492

Query CACACCTC (double strand) [8-mer CACACCTC] next
0.49

Query ACACCTCC (double strand) [8-mer ACACCTCC] next
0.49

Query AGGTGTTA (double strand) [8-mer AGGTGTTA] next
0.496

Query GGTGTGAA (double strand) [8-mer GGTGTGAA] next
0.496

Query GACACCTC (double strand) [8-mer GACACCTC] next
0.49

Query AACACCTC (double strand) [8-mer AACACCTC] next
0.491

Query GTGTGAAA (double strand) [8-mer GTGTGAAA] next
0.49

Query AGGTGTCG (double strand) [8-mer AGGTGTCG] next
0.492

Query AGGTGTGA (double strand) [8-mer AGGTGTGA] next
0.499

====

Measured binding signal (PBM E-score (-0.5 to 0.5)) values are reported for all entries that follow.
Target: SpTbr T-box (Strongylocentrotus purpuratus) (UniProt A0A7M7RD59)
Sequence: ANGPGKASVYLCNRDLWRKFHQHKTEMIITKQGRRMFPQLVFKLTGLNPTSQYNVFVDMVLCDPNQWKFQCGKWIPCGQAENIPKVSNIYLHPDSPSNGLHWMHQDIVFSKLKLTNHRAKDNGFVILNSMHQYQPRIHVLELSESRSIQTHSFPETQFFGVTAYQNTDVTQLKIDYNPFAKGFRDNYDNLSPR
# respond with the number and nothing more

The cases that follow already have their binding signal (PBM E-score (-0.5 to 0.5)) on record.
sequence_string="ATCACACC (double strand) [8-mer ATCACACC]" test_value=0.488
sequence_string="GGGTGTGA (double strand) [8-mer GGGTGTGA]" test_value=0.493
sequence_string="CACACCTC (double strand) [8-mer CACACCTC]" test_value=0.49

Any idea what binding signal (PBM E-score (-0.5 to 0.5)) was measured for GGTGCGAA (double strand) [8-mer GGTGCGAA] ?
0.487

====

System: SpTbr DNA-binding domain (T-box) (Strongylocentrotus purpuratus)
Test: SPR (steady state)
Conditions: SPR running buffer 50 mM Mops (pH not given; protein buffer 20 mM Mops pH 7.5), 150 mM NaCl, 1 mM DTT, 0.01% P20, 20 °C, 30 µl/min; streptavidin-coated CM5 …
measured.attribute: Kd (nM)
Supply the numeric figure in nM, leaving out any unit text.

The cases that follow already have their Kd on record.
sequence_string="CTTTAGGTGTCGAACGGTTTTCCGTTCGACACCTAAAG [MmEomes Secondary Hairpin]" test_value=882
sequence_string="CTTTAGGTGTGAAACGGTTTTCCGTTTCACACCTAAAG [Primary Tbr Site Hairpin]" test_value=137

Next item in the queue.
Any idea what Kd was measured for CTTTAGGTGACAAACGGTTTTCCGTTTGTCACCTAAAG [PmTbr Secondary Site Hairpin] ?
989

====

System: PmTbr DNA-binding domain (T-box) (Patiria miniata)
Assay: SPR (steady state)
Conditions: SPR running buffer 50 mM Mops (pH not given; protein buffer 20 mM Mops pH 7.5), 150 mM NaCl, 1 mM DTT, 0.01% P20, 20 °C, 30 µl/min; streptavidin-coated CM5 …
Measured Kd values are reported for all entries that follow.
Supply the numeric figure in µM, leaving out any unit text.

The cases that follow already have their Kd on record.
sequence_string="CTTTAGGTGACAAACGGTTTTCCGTTTGTCACCTAAAG [PmTbr Secondary Site Hairpin]" tested_target="PmTbr DNA-binding domain (T-box) (Patiria miniata)" test_value=0.446
sequence_string="CTTTAGGTGTGAAACGGTTTTCCGTTTCACACCTAAAG [Primary Tbr Site Hairpin]" tested_target="PmTbr DNA-binding domain (T-box) (Patiria miniata)" test_value=0.107

Next item in the queue.
Given the entry CTTTAGGTGTCGAACGGTTTTCCGTTCGACACCTAAAG [MmEomes Secondary Hairpin] , what Kd was observed with PmTbr DNA-binding domain (T-box) (Patiria miniata)?
0.732
